# Test system: Human RSV-A (“Long” strain)
# Assay details: RSV in vitro cytoprotection assay (CPE, ATPlite) in HEp-2 cells
# Format: cell-based
# Reported conditions: human respiratory syncytial virus, 96 h; HEp-2 cells, 4-day incubation, ATPlite readout; read-out: Human RSV-A (“Long” strain) EC50
pEC50: −log10 of the molar value.
Recorded metric: pEC50

- Chemical smiles: "Cc1cnc(N2CC3(CCOCC3)C2)c(C(=O)Nc2ccc(C(=O)N3CCc4cc(NS(=O)(=O)c5c(C)cccc5F)sc4-c4ccccc43)cc2)c1"
  pEC50: "< 7.30"
- Chemical smiles: "O=C(Nc1c(F)cccc1F)c1nc2c(s1)-c1ccccc1N(C(=O)c1ccc(NC(=O)c3cccnc3N3CC4(CCOCC4)C3)cc1)CC2"
  pEC50: "> 8.00"

Q) Requested field: pEC50. Item: Cc1cnc(N2CC3(CCOCC3)C2)c(C(=O)Nc2ccc(C(=O)N3CCc4cc(-c5ncc(C)[nH]5)sc4-c4ccc(F)cc43)cc2)c1
A) > 8.00

---

# EC50 values compiled below
# Tested on: Human RSV-A (“Long” strain)
# Assay details: RSV in vitro cytoprotection assay (CPE, ATPlite) in HEp-2 cells
# Format: cell-based
# Reported conditions: human respiratory syncytial virus, 96 h; HEp-2 cells, 4-day incubation, ATPlite readout; read-out: Human RSV-A (“Long” strain) EC50
# Procedure: RSV is a single stranded negative sense RNA virus that causes respiratory tract infections which can be dangerous to infants, the elderly, and immunosuppressed individuals. Currently there is no vaccine, and therapeutic options are both costly and of limited effectiveness. These approved treatments are Ribavirin, and Palivizumab/Synagis (a monoclonal antibody). […] Cell viability is measured several days later along with separate measurements of compound cytotoxicity. […]

In the examples that follow, each entry is paired with its recorded EC50.
- Compound: "O=C(Nc1c(F)cc(F)cc1F)c1cc2c(s1)-c1ccc(F)cc1N(C(=O)c1ccc(NC(=O)c3cc4ccccc4nc3N3CC4(CCOCC4)C3)cc1)CC2 [Example 15]"
  EC50: "< 10 nM"
- Compound: "Cc1ccc(C(=O)Nc2ccc(C(=O)N3CCc4cc(C(=O)Nc5c(F)cccc5F)oc4-c4ccccc43)cc2)c(N2CC3(CCOCC3)C2)n1 [Example 254]"
  EC50: "< 10 nM"
- Compound: "Cc1cnc(N2CC3(CCOCC3)C2)c(C(=O)Nc2ccc(C(=O)N3CCc4cc(C(=O)Nc5ncns5)sc4-c4ccc(F)cc43)cc2)c1 [Example 128]"
  EC50: "10 to 50 nM"
- Compound: "Cc1cnc(N2CC3(CCOCC3)C2)c(C(=O)Nc2ccc(C(=O)N3CCc4cc(-c5ccc(F)cn5)sc4-c4ccc(F)cc43)cc2)c1 [Example 163]"
  EC50: "< 10 nM"

Q) Requested field: EC50. Item: O=C(Nc1c(F)cc(F)cc1Cl)c1cc2c(s1)-c1ccc(F)cc1N(C(=O)c1ccc(NC(=O)c3cc4ccccc4nc3N3CC4(CCOCC4)C3)cc1)CC2 [Example 25]
A) 10 to 50 nM

---

# Tested on: Human RSV-A (“Long” strain)
# Assay details: RSV in vitro cytoprotection assay (CPE, ATPlite) in HEp-2 cells
# Type: cell-based
# Reported conditions: human respiratory syncytial virus, 96 h; HEp-2 cells, 4-day incubation, ATPlite readout; read-out: Human RSV-A (“Long” strain) EC50
pEC50: −log10 of the molar value.
Recorded metric: pEC50

In the examples that follow, each entry is paired with its recorded pEC50.
- Chemical smiles: "O=C(Nc1ccc(C(=O)N2CCc3cc(-c4nc5ccc(F)cc5[nH]4)sc3-c3ccc(F)cc32)cc1)c1cc(F)cnc1N1CC2(CCOCC2)C1"
  Recorded metric: "pEC50"
  Test value: "7.30 to 8.00"
- Chemical smiles: "Cc1ccc(C(=O)Nc2ccc(C(=O)N3CCc4sc(C(=O)Nc5c(F)cccc5F)cc4-c4ccccc43)cc2)c(N2CC3(CCOCC3)C2)n1"
  Recorded metric: "pEC50"
  Test value: "< 7.30"
- Chemical smiles: "Cc1cnc(N2CC3(CCOCC3)C2)c(C(=O)Nc2ccc(C(=O)N3CCc4cc(-c5ncc(C)s5)sc4-c4ccc(F)cc43)cc2)c1"
  Recorded metric: "pEC50"
  Test value: "> 8.00"
- Chemical smiles: "Cc1ccc(C(=O)Nc2ccc(C(=O)N3CCc4cc(NC(=O)OC5CCCC5)sc4-c4ccccc43)cc2)c(N2CC3(CCOCC3)C2)n1"
  Recorded metric: "pEC50"
  Test value: "7.30 to 8.00"
- Chemical smiles: "Cc1cnc(N2CC3(CCOCC3)C2)c(C(=O)Nc2ccc(C(=O)N3CCc4c(sc(NC(=O)c5c(F)cccc5F)c4F)-c4ccccc43)cc2)c1"
  Recorded metric: "pEC50"
  Test value: "> 8.00"

Okay, next one:
Q) Requested field: pEC50. Item: O=C(Nc1c(F)cccc1F)c1cc2c(o1)-c1ccccc1N(C(=O)c1ccc(NC(=O)c3cc4c(nc3N3CC5(CCOCC5)C3)CCC4)cc1)CC2
A) > 8.00
